measurement-description: Kinetic aqueous solubility of the compound in PBS at pH 7.4 after 1 hr by chemiluminescent nitrogen detection method
Type: physicochemical
condition-set: read-out: Kinetic_solubility
attribute-measured: solubility kinetic at 1 h

Note to self: solubility kinetic at 1 h recorded for Cc1c(C(O)(C2CC2)C(F)(F)F)ccc(C#N)c1C(F)(F)F (centres undefined) was 245 µM

Note to self: solubility kinetic at 1 h recorded for Cc1c(C(O)(c2cocn2)C(F)(F)F)ccc(C#N)c1C(F)(F)F (centres undefined) was > 400 µM

Note to self: solubility kinetic at 1 h recorded for N#Cc1ccc(C(O)(C2CC2)C(F)(F)F)cc1Cl (centres undefined) was > 400 µM

Note to self: solubility kinetic at 1 h recorded for N#Cc1ccc(C(O)(c2cocn2)C(F)(F)F)cc1C(F)(F)F (centres undefined) was > 700 µM

* * *

target-system: Androgen receptor (Homo sapiens)
Sequence (P10275 whole entry): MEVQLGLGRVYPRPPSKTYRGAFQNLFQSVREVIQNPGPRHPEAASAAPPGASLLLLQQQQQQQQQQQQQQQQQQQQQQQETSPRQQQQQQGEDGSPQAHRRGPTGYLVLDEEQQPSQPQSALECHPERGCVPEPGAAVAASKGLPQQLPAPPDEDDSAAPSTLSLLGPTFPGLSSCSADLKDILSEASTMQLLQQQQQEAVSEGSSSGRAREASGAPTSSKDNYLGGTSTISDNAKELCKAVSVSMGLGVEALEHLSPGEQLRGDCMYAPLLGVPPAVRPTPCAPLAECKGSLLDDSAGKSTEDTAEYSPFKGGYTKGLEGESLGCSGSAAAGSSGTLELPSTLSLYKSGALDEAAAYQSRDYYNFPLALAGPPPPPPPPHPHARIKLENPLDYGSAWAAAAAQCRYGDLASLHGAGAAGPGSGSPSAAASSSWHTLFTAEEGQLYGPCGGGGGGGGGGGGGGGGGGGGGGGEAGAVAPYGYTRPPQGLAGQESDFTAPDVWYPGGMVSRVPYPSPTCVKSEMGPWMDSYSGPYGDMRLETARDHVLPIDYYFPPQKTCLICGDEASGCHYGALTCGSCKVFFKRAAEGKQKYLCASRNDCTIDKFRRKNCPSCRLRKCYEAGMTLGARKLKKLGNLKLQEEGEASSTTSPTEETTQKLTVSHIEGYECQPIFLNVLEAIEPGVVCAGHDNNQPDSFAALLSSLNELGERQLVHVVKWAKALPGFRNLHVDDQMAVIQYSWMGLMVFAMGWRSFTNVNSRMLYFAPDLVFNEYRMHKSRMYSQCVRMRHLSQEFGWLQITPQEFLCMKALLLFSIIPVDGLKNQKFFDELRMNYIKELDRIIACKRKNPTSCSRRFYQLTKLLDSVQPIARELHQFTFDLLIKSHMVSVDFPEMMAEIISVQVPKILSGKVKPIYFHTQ
measurement-description: Modulation of human androgen receptor expressed in African green monkey CV1 cells after 24 hrs by luciferase reporter gene assay
EC50 strictly less than 2 nM = Y. Otherwise N.

Query string: Determine if Cc1c(C#N)ccc(C(C)(O)C(F)(F)F)c1C (stereo unspecified) shows EC50 strictly lower than 2 nM.
Result string: N

Query string: Determine if N#Cc1ccc(C(O)(c2cocn2)C(F)(F)F)cc1C(F)(F)F (stereo unspecified) shows EC50 strictly lower than 2 nM.
Result string: Y

Query string: Determine if CC(C)CC(O)(c1ccc(C#N)c(Cl)c1Cl)C(F)(F)F (stereo unspecified) shows EC50 strictly lower than 2 nM.
Result string: N

Query string: Determine if Cc1c(C(O)(C(F)(F)F)C(F)(F)F)ccc(C#N)c1Cl shows EC50 strictly lower than 2 nM.
Result string: N

Query string: Determine if CC(C)C(O)(c1ccc(C#N)c(Cl)c1Cl)C(F)(F)F (stereo unspecified) shows EC50 strictly lower than 2 nM.
Result string: Y

Query string: Determine if Cc1c(C(O)(C(F)(F)F)C(F)(F)F)ccc(C#N)c1C(F)(F)F shows EC50 strictly lower than 2 nM.
Result string: Y
